Value source: patent US20200087373A1

Biological target: T1, human GIP receptor (human, UniProt P48546 22-466)
T1 construct: whole, on cells; also called hGIPR
T1 sequence (looked up): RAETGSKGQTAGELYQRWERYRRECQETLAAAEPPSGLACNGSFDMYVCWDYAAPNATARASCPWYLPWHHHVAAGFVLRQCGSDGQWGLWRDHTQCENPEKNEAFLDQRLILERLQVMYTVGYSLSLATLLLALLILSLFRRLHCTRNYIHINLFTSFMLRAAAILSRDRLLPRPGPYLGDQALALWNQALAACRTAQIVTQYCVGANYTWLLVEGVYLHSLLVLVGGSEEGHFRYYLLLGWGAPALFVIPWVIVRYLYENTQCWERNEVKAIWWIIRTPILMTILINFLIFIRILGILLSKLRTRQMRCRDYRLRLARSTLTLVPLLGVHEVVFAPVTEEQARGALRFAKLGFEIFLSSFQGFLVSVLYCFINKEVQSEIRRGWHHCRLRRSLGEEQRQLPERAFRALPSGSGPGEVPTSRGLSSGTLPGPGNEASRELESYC
Test: 125I-hGIP competition binding, COS-7 cells expressing hGIPR;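 also: nonspecific binding taken as radioligand bound by untransfected cells, binding buffer with or without 2% HSA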
Ends that are not written are not given here. * marks the point of attachment. Stearoyl = CCCCCCCCCCCCCCCCCC(=O)*; Myristoyl = CCCCCCCCCCCCCC(=O)*; Lauroyl = CCCCCCCCCCCC(=O)*
QUANTITY MEASURED: log IC50 (log M)
Output spec: scalar in log M, unitless text.

Example entries and their recorded answers appear below.
binder="EGTFISDYSIAMDK(Myristoyl)IHQQDFVNWLLAQK-NH2 [AT111 [hGIP(3-30)NH2-C14/16]]" result=-6.6
binder="Stearoyl-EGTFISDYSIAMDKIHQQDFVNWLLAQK-NH2 [AT113 [hGIP(3-30)NH2-C18/3]]" result=-4.4

Turning now to a further record.
// log IC50 lookup, binder = EGTFISDYSIAMDK(Lauroyl)IHQQDFVNWLLAQK-NH2 (printed with the same formula as AT102 but a different ID and different values) [AT154 [hGIP(3-30)NH2-C12/16]] , result: -8
